Reference for the values: patent US11078158B2

# test_name: Hygroscopicity test
# Format: physicochemical
# condition_description: relative humidity 84%, 30° C., one week
test_readout: Weight difference (%)
Record the value in %, omitting the unit from your answer.

Consider the following illustrative entries.
Problem: Identify the reported Weight difference (%) for the following entry. COC1(c2cccc(F)c2F)CCNC1.O=C(O)C[C@H](O)C(=O)O (centres unmarked) [Example 13]
Solution: 0.40

Problem: Assign Weight difference (%) to the following record: COC1(c2cccc(F)c2F)CCNC1.Cl (centres unmarked) [Example 8]
Solution: 25.77

Problem: Give reported Weight difference (%) value for COC1(c2cccc(F)c2F)CCNC1.O=C(O)C(O)C(O)C(=O)O (centres unmarked) [Example 9]
Solution: 2.13

Problem: # return recorded Weight difference (%) for input CO[C@]1(c2cccc(F)c2F)CCNC1.O=C(O)/C=C/C(=O)O [Example 7]
Solution: 0.00

Others:
Problem: Output Weight difference (%) of COC1(c2cccc(F)c2F)CCNC1.O=C(O)C(=O)O (centres unmarked) [Reference Example 19, reference compound]
Solution: −0.15
